All values here come from patent US20230295293A1.

Target: T1, Human FRβ ECD-Avi-His (human, biotin on the Avi-tag (BirA) in the HTRF assays)
T1 construct: Soluble region with C-terminal Avi and His tags; also called Human FRß
T1 sequence (chain, as listed by the source limits assumed): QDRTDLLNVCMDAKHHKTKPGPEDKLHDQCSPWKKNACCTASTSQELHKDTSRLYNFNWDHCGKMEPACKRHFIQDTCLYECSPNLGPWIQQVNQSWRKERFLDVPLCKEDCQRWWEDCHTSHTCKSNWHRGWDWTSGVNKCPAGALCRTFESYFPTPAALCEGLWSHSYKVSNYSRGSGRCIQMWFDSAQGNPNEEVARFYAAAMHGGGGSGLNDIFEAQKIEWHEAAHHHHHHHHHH
Assay: HTRF antigen binding assay; hybridoma supernatant, 1 nM biotinylated antigen
READOUT_KIND: binding result

| BINDER | VALUE |
| --- | --- |
| AB1370083 (hybridoma IgG) (antibody, V domains shown, IgG from hybridoma of Del-1 humanised mouse, tested as supernatant ('mouse IgG', detected with anti-mouse IgG) or Phynexus purified) VH: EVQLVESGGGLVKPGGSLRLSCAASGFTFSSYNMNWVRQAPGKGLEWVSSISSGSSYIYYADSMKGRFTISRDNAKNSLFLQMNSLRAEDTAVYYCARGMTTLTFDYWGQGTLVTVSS VL: DIQMTQSPSSLSASVGDRVTITCRASQGISTFLAWFQQKPGKAPKSLIYAASSLQSGVPSKFSGSGSETDFTLTISSLQPEDFATYYCQQYISYPLTFGGGTKVEIK | no binding |
| AB1370035 (hybridoma IgG) (antibody, V domains shown, IgG from hybridoma of Del-1 humanised mouse, tested as supernatant ('mouse IgG', detected with anti-mouse IgG) or Phynexus purified) VH: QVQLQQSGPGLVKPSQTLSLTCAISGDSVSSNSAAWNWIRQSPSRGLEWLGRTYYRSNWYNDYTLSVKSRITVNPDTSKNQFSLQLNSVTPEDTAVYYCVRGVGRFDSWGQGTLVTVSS VL: DIQMTQSPSTLSASVGDRVIITCRASQSISSWLAWYQQKPGKAPKLLIYKASSLESGVPSRFSGSGSGTEFTLTITSLQPDDFASYYCQEYKTYSIFTFGPGTKVDIK | no binding |
| AB1370026 (hybridoma IgG) (antibody, V domains shown, IgG from hybridoma of Del-1 humanised mouse, tested as supernatant ('mouse IgG', detected with anti-mouse IgG) or Phynexus purified) VH: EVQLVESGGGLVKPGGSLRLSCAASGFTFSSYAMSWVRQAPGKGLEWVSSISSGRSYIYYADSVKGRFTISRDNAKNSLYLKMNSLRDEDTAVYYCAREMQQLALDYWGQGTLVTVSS VL: DIQMTQSPSSLSASVGDRVTITCRASQGISNFLAWFQQAPGKAPKSLIYAASSLQSGVPSKFSGSGSGTDFTLTISSLQPEDFATYYCQQYNSYPFTFGQGTKLEIK | no binding |
